- TEST METHOD NOTES: Natriuretic polypeptide receptor (hNpr1) antagonism - Pilot counterscreen GloSensor control cell line (AID 1347045)
- ASSAY CONDITIONS: HEK293 cGMP GloSensor cells, SNP-stimulated luminescence, 20 min; series mostly up to 38.3 µM
Inconclusive results are not listed. Activity calls are given as the source filed them. Calls come from the whole dose curve.
Please answer using one outcome listed in 1 for active, -1 for inactive

Worked cases, answers included:
[[record]]
compound = "CC(N)=NCCCC[C@@H](N)C(=O)O"
label_value = -1

[[record]]
compound = "CC(C)(C)NCC(O)COc1cccc2[nH]c(=O)[nH]c12 (stereo unspecified)"
label_value = -1

[[record]]
compound = "Cn1c(=O)c2[nH]c(C3CCCC3)nc2n(C)c1=O"
label_value = -1

[[record]]
compound = "C[C@@H](NCCc1ccc(O)cc1)[C@@H](O)c1ccc(O)cc1"
label_value = -1

[[record]]
compound = "CC(=O)O[C@H]1Cc2ccccc2N(C(N)=O)c2ccccc21"
label_value = -1


Just curious, what result did [Li+] get here?
-1

// return assay outcome for N#CC(=C(\N)Sc1ccccc1N)/C(C#N)=C(/N)Sc1ccccc1N
1

What was the test verdict on NC(Cc1cccc(-c2ccccc2CP(=O)(O)O)c1)C(=O)O (stereo unspecified) ?
-1

From: PubChem BioAssay (NCATS)
